Test system: Pseudomonas aeruginosa 1771M
Test Summary: Antibacterial activity in vitro (MIC, agar dilution)
Type: cell-based
Experimental Parameters: read-out: minimum inhibitory concentration (MIC)
Procedure: The optically active quinoline carboxylic acid derivatives of the present invention were tested as to whether they could be useful as antibacterial compounds. In this regard, the compounds were measured for minimum inhibitory concentration (MIC: unit μg/ml) according to an agar dilution process (Hoechst 345) in which Muller-Hinton agars were diluted two fold. For comparison, ciprofloxacin and sparfloxacin were used as controls. […]
Parameter: MIC (µg/mL)

[
  {
    "Compound": "CO/N=C1\\CN(c2c(F)c(N)c3c(=O)c(C(=O)O)cn(C4CC4)c3c2F)CC1(C)CN.Cl (single isomer, unassigned; (-))",
    "Experimental System": "Pseudomonas aeruginosa 1771M",
    "Parameter": "MIC",
    "Observed": 0.195
  },
  {
    "Compound": "CO/N=C1\\CN(c2nc3c(cc2F)c(=O)c(C(=O)O)cn3C2CC2)CC1(C)CN.Cl (single isomer, unassigned; (-))",
    "Experimental System": "Pseudomonas aeruginosa 1771M",
    "Parameter": "MIC",
    "Observed": 0.391
  },
  {
    "Compound": "CO/N=C1\\CN(c2cc3c(cc2F)c(=O)c(C(=O)O)cn3C2CC2)CC1(C)CN.Cl (single isomer, unassigned; (-))",
    "Experimental System": "Pseudomonas aeruginosa 1771M",
    "Parameter": "MIC",
    "Observed": 0.195
  },
  {
    "Compound": "C[C@@H]1CN(c2c(F)c(N)c3c(=O)c(C(=O)O)cn(C4CC4)c3c2F)C[C@H](C)N1",
    "Experimental System": "Pseudomonas aeruginosa 1771M",
    "Parameter": "MIC",
    "Observed": 0.098
  },
  {
    "Compound": "O=C(O)c1cn(C2CC2)c2cc(N3CCNCC3)c(F)cc2c1=O",
    "Experimental System": "Pseudomonas aeruginosa 1771M",
    "Parameter": "MIC",
    "Observed": 0.098
  }
]
